Where do these numbers come from? They come from paper PMC12022975.

system: KRAS G12V GMP-PNP (Homo sapiens, UniProt P01116, G12V)
Construct: His-tag (TEV-cleavable) (cleaved yes); made in house; host or cells: E. coli BL21* DE3
Sequence (P01116 1-188 isoform P01116-2 G12V): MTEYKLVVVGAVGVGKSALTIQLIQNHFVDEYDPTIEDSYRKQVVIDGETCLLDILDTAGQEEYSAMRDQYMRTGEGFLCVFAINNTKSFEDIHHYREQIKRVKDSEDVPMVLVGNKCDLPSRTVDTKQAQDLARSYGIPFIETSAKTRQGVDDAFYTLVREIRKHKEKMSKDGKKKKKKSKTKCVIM
protocolSummary: Ligand-titrated [15N,1H]-HSQC affinity determination (TITAN line shape analysis)
Format: binding
conditionInfo: TITAN analysis of L6, V7, T74, G75 amide signals; no saturation reached, interpret with caution; read-out: KD
pKd: −log10 of the molar value.
Reported values of pKd for individual entries
observable: pKd

[[record]]
compound = "COc1ccc(C)cc1NC(=O)Nn1cnnc1"
observable = "pKd"
observed = 1.82

[[record]]
compound = "O=C(O)/C=C/c1c[nH]c2ccccc12"
observable = "pKd"
observed = 2.35

[[record]]
compound = "Cc1[nH]ncc1CNc1ccccc1F [fragment 5, Cc1n[nH]cc1CNc(cccc1)c1F]"
observable = "pKd"
observed = 2.28

[[record]]
compound = "Nc1ccc(S(=O)(=O)Nc2ccccc2)cc1"
observable = "pKd"
observed = 2.23

[[record]]
compound = "Cc1cc2cc[nH]c2cc1C"
observable = "pKd"
observed = 2.49

[[record]]
compound = "CNCc1cnn(-c2ccccc2)c1"
observable = "pKd"
observed = 2.48

[[record]]
compound = "c1coc(CNc2nc3ccccc3[nH]2)c1 [fragment 1, C(c1ccco1)Nc1nc(cccc2)c2[nH]1]"
observable = "pKd"
observed = 2.92

[[record]]
compound = "N=c1sccn1CC(=O)Nc1ccc(F)cc1"
observable = "pKd"
observed = 2.00

